# assayedSystem: translationally controlled tumor protein (TCTP) (Homo sapiens, UniProt P13693)
# Construct: gene TPT1
# Sequence (P13693 whole entry): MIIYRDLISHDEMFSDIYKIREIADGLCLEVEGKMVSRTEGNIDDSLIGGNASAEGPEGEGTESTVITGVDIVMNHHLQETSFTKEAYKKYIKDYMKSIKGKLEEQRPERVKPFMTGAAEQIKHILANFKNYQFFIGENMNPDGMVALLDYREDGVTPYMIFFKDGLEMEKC
# testDescription: microscale thermophoresis with NHS-labeled purified human TCTP (reference inhibitor, positive control)
# Format: binding
observedProperty: pKd
The value called pKd is obtained by taking minus log10 of the concentration in mol/L.

Query: Entry C[C@H]1[C@H](OC(=O)CCC(=O)O)O[C@@H]2O[C@@]3(C)CC[C@H]4[C@H](C)CC[C@@H]1[C@@]24OO3 [Artesunate] : reported pKd = ?
Response: 4.63
